FYI, the data here is from the supplement of paper PMC7125110.

B1: glmS ribozyme (parent)
chain: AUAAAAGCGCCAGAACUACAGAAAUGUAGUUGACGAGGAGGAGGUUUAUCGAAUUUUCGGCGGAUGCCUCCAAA

- Variants of: B1
- assay_remarks: self-cleavage kobs at 2500 uM GlcN6P; higher = faster cleavage; RNA array
- condition_parameters: with glucosamine-6-phosphate
This sample holds only a part of the variants without activity.
Is self-cleavage kobs at 2500 uM GlcN6P at least 0.0003 s⁻¹? Then yes. If not, no.

          mutant_label  group_label
0        G7A A15U C58A           no
1  U54G C58G A64G C71U           no
2            A39C U56C          yes

Q: API: above_or_equal(metric=self-cleavage kobs at 2500 uM GlcN6P, cutoff=0.0003 s⁻¹) for item A12U U65G C70A
A: no
